molecular target: Neuronal acetylcholine receptor subunit alpha-7 (Mus musculus, UniProt P49582); test: Displacement of [125I]alpha-bungarotoxin from alpha7 nAChR in C57BL/6J mouse hippocampal membrane
Sequence (P49582 whole entry): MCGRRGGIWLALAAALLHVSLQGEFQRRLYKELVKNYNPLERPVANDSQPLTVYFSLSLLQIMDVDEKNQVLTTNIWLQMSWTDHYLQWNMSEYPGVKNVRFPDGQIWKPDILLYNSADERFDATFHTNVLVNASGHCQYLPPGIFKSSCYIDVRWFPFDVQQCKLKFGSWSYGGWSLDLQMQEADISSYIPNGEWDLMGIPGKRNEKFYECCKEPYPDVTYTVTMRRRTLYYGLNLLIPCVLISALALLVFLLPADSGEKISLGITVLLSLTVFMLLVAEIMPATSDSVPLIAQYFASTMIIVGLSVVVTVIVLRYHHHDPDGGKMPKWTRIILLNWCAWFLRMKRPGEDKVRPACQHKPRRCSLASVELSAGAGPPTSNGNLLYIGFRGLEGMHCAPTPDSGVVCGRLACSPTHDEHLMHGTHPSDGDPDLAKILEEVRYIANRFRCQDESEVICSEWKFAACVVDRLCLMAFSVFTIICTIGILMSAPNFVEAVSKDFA
assay.endpoint: Ki

Query O=C(O)[C@@H](O)[C@H](O)[C@H](O)[C@@H](O)C(=O)O yields Ki of > 10 µM
